Assay: gradient 5% acetonitrile 3 min, to 50% in 2 min, to 85% in 15 min, held 3 min, 100 µL/min
Conditions: column: Zorbax Extend-C18 2.1 x 50 mm; eluents: water / acetonitrile, 0.1% formic acid
Measurement Label: RP-LC retention time (s)

{"Compound": "COc1cc(NC(=O)N2CC(c3nc(C(C)C)nn3C)C2)cc(OC)c1", "RP-LC retention time, s": 662}
{"Compound": "CCCCNC(=O)C1CCc2nc(N3CCC(C)CC3)ncc2C1 (stereo not given)", "RP-LC retention time, s": 758}
{"Compound": "Cc1nc(N2CCN(c3ccccn3)CC2)nc2c1C(=O)CC(c1cccc(Cl)c1)C2 (stereo not given)", "RP-LC retention time, s": 838}
{"Compound": "CCN1CCN(CCCNC(=O)Cn2c(-c3cccs3)cc3ccccc32)CC1", "RP-LC retention time, s": 722}
{"Compound": "COc1ccc(CNC(=O)c2cn3cccc(C)c3n2)cc1OC", "RP-LC retention time, s": 604}
